Test system: human pancreatic cancer cell line, PANC1
procedure.text: Measurement of accumulated amounts of 211At-labeled compounds in tumors of PANC1 transplanted mice (Test Example 5)
Assay type: in vivo
recorded.conditions: 10 minutes after administration, 0.1 MBq per mouse via tail vein
Assign class 1 whenever tumor accumulation does not fall below 3 %ID/g; assign class 0 whenever it does.

Record excerpt, results attached:
{"columns": ["compound", "group"],
 "data": [
  ["COc1ccc(C[C@](C)(N)C(=O)O)cc1[211At] [^211At-AAMT-OMe]", "class 0"],
  ["CCOc1ccc(C[C@](C)(N)C(=O)O)cc1[At] [^211At-AAMT-OEt]", "class 1"],
  ["COc1cc(C[C@](C)(N)C(=O)O)ccc1[At] [^211At-AAMPhe-OMe]", "class 1"],
  ["CCCOc1ccc(C[C@](C)(N)C(=O)O)cc1[At] [^211At-AAMT-OPr]", "class 1"]
]}

Below: the item to evaluate.
Determine whether this compound has tumor accumulation no lower than 3 %ID/g: C[C@](N)(Cc1ccc(O)c([At])c1)C(=O)O [^211At-AAMT, astato(^211At)-α-methyl-L-tyrosine, reference compound]
class 0

* * *

System: human pancreatic cancer cell line, PANC1
procedure.text: Measurement of accumulated amounts of 211At-labeled compounds in tumors of PANC1 transplanted mice (Test Example 5)
Format: in vivo
recorded.conditions: 1 hour after administration, 0.1 MBq per mouse via tail vein
Could you please report measured tumor accumulation for the items listed next?
One number for each entry, in %ID/g.

Below, 4 molecules whose answers are already recorded.
{"columns": ["molecule", "output.unit", "tumor accumulation"],
 "data": [
  ["C[C@](N)(Cc1ccc(O)c([At])c1)C(=O)O [^211At-AAMT, astato(^211At)-α-methyl-L-tyrosine, reference compound]", "%ID/g", 2.49],
  ["COc1cc(C[C@](C)(N)C(=O)O)ccc1[At] [^211At-AAMPhe-OMe]", "%ID/g", 6.38],
  ["CCOc1ccc(C[C@](C)(N)C(=O)O)cc1[At] [^211At-AAMT-OEt]", "%ID/g", 3.59],
  ["CCCOc1ccc(C[C@](C)(N)C(=O)O)cc1[At] [^211At-AAMT-OPr]", "%ID/g", 9.45]
]}

Fill in: tumor accumulation on human pancreatic cancer cell line, PANC1, entry COc1ccc(C[C@](C)(N)C(=O)O)cc1[211At] [^211At-AAMT-OMe]
3.78
